MIC E. coli values for the molecules below.
system: E.coli; assay type: cell-based, Escherichia coli
Bridge positions count the residues as written; N and C are the ends. Square brackets hold non-standard residues; d marks the D form. Peptide text beside a SMILES is read from it. d(aIle) = CC[C@H](C)[C@@H](N)C(=O)O; dNMeF = CN[C@H](Cc1ccccc1)C(=O)O
// note: answer is a bare numeric in µg/mL

Worked cases, answers included:
MOLECULE	MEASUREMENT NAME	READOUT NUMBER
CC[C@H](C)[C@H](NC(=O)[C@@H](Cc1ccccc1)NC)C(=O)N[C@@H](CO)C(=O)N[C@H](CCC(N)=O)C(=O)N[C@@H](C(=O)N[C@H](C(=O)N[C@@H](CO)C(=O)N[C@H]1C(=O)N[C@@H](C)C(=O)N[C@@H](CCCCN)C(=O)N[C@@H]([C@@H](C)CC)C(=O)O[C@H]1C)[C@@H](C)CC)[C@@H](C)CC	MIC E. coli	16
CC[C@H](C)[C@H](NC(=O)[C@H](N)Cc1ccc(Cl)cc1)C(=O)N[C@@H](CO)C(=O)N[C@H](CCC(N)=O)C(=O)N[C@@H](C(=O)N[C@H](C(=O)N[C@@H](CO)C(=O)N[C@H]1C(=O)N[C@@H](C)C(=O)N[C@@H](CCCCN)C(=O)N[C@@H]([C@@H](C)CC)C(=O)O[C@H]1C)[C@@H](C)CC)[C@@H](C)CC	MIC E. coli	8

I would be grateful if you could share the reported MIC E. coli for CC[C@H](C)[C@H](NC(=O)[C@@H](Cc1ccccc1)NC)C(=O)N[C@@H](Cc1c[nH]c2ccccc12)C(=O)N[C@H](CCC(N)=O)C(=O)N[C@@H](C(=O)N[C@H](C(=O)N[C@@H](CO)C(=O)N[C@H]1C(=O)N[C@@H](C)C(=O)N[C@@H](CCCCN)C(=O)N[C@@H]([C@@H](C)CC)C(=O)O[C@H]1C)[C@@H](C)CC)[C@@H](C)CC [Compound 7] (H-[dNMeF]IW[dQ][d(aIle)]IS[dT]AKI; ester 8-C) .
32

Reported MIC E. coli, molecule CC[C@H](C)[C@H](NC(=O)[C@@H](Cc1ccccc1)NC)C(=O)N[C@@H](CO)C(=O)N[C@H](CCC(N)=O)C(=O)N[C@@H](C(=O)N[C@H](C(=O)N[C@@H](CO)C(=O)N[C@H]1C(=O)N[C@@H](C)C(=O)N[C@@H](CCCCNC(=N)NC)C(=O)N[C@@H]([C@@H](C)CC)C(=O)O[C@H]1C)[C@@H](C)CC)[C@@H](C)CC : ____
8

----------
system: C. difficile
MEASUREMENT NAME: MIC C. difficile (µg/mL)
Give your result in µg/mL as a bare value.

Endpoint output: MIC C. difficile of CC[C@H](C)[C@H](NC(=O)[C@@H](Cc1ccccc1)NC)C(=O)N[C@@H](CO)C(=O)N[C@H](CCC(N)=O)C(=O)N[C@@H](C(=O)N[C@H](C(=O)N[C@@H](CO)C(=O)N[C@H]1C(=O)N[C@@H](C)C(=O)N[C@@H](CCCNC(=N)NC)C(=O)N[C@@H]([C@@H](C)CC)C(=O)O[C@H]1C)[C@@H](C)CC)[C@@H](C)CC . Value?
0.12
